- assaySystem: DP receptor (Homo sapiens)
- Construct: endogenous in cells; host or cells: washed platelets from peripheral blood of a healthy volunteer
- Sequence (Q13258 1-359): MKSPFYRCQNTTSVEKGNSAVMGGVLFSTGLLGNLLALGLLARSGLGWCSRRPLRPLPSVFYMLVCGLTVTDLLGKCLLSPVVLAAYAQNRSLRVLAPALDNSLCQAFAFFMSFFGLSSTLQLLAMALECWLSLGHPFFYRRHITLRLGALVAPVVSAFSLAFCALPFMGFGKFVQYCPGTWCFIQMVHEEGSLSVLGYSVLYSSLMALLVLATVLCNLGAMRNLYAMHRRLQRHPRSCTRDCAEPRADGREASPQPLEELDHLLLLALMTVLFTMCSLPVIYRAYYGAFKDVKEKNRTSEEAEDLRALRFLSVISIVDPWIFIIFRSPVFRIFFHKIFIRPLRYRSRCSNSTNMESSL
- experimentalProtocol: cAMP assay with washed platelet (DP inhibitory activity in vitro)
- Format: cell-based
- measurementSetup: read-out: IC50 (50% DP-inhibitory concentration in the cAMP assay); washed human platelets, 100 nM PGD2, cAMP by HTRF
readoutKind: IC50 (nM)
Output spec: scalar in nM, unitless text.

Here are 3 molecules together with their reported answers.
>  <compoundStructure>
CC(=O)c1ccc(N2CCN(S(=O)(=O)c3ccc(OC(C)C)cc3)CC2)cc1OCC(=O)O

>  <readoutKind>
IC50

>  <unitName>
nM

>  <valueObserved>
1300

$$$$
>  <compoundStructure>
Cc1cnc(-c2ccc(N3CCN(S(=O)(=O)c4ccc(OC(C)C)cc4)CC3)cc2OCC(=O)O)o1

>  <readoutKind>
IC50

>  <unitName>
nM

>  <valueObserved>
1000

$$$$
>  <compoundStructure>
CC[C@@H](C)Oc1ccc(S(=O)(=O)N2CCN(c3ccc(Cl)c(OCC(=O)O)c3)CC2)cc1

>  <readoutKind>
IC50

>  <unitName>
nM

>  <valueObserved>
380

$$$$

# evaluate next
Which IC50 is reported for this molecule? CC(C)Oc1ccc(S(=O)(=O)N2CCN(c3ccc(C(=O)NCc4cccs4)c(OCC(=O)O)c3)CC2)cc1
590
